// data source = patent US8796457B2

assay: Caco2 permeability (bi-directional); type: in vitro ADME; conditions: human, pH 7.4; Caco-2, 10 μM, 1 hour, pH7.4
PROPERTY NAME: Papp at 1 h, 10 μM (×10⁻⁶ cm/s)
Value expressed in ×10⁻⁶ cm/s; do not type the unit.

q: Quickly give me recorded Papp at 1 h, 10 μM for CC1(C)CN(C(=O)c2ccc(-c3cccc4nc(NC(=O)C5CC5)nn34)cc2)C1
a: 7.8

* * *

biological target: Recombinant human JAK2 (catalytic domain) (Homo sapiens (Human), UniProt O60674); assay: JAK2 inhibition assay; conditions: average ± standard error of the mean; 7.5 μM ATP
Sequence (O60674 849-1124): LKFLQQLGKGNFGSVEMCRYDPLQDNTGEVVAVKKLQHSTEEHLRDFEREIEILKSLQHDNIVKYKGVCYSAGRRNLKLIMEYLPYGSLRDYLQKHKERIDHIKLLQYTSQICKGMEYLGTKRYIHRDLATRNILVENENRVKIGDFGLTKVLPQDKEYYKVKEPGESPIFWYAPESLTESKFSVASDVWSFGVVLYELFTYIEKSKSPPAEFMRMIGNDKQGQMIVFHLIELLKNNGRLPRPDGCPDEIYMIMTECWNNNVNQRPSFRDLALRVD
PROPERTY NAME: IC50 (nM)
Supply the numeric figure in nM, leaving out any unit text.

q: State, in one line, measured IC50 of CC1(C)CN(C(=O)c2ccc(-c3cccc4nc(NC(=O)C5CC5)nn34)cc2)C1
a: 67
